# test: inhibitors of CD8+ T cell-vesicle binding, pilot screen, LFA-1/ICAM-1 modulator project, MLPCN validation set, flow cytometry (AID 2523)
# condition notes: 2C mouse CD8+ T cells, at 7 µM, stronger effect = lower value; measured here: CD8+/vesicle+ event percentage
# if measured double positive events < 60%: fulfilled  # else: not fulfilled

Observe how each entry below is paired with its result.
Input line: State whether 60% exceeds double positive events recorded for "COC(=O)c1cc(=O)c2ccc(OC)cc2o1" .
Output line: fulfilled

Input line: State whether 60% exceeds double positive events recorded for "COc1cc2c(cc1OC)C(c1cc3ccccc3oc1=O)=NC(C)(C)C2" .
Output line: fulfilled

Input line: State whether 60% exceeds double positive events recorded for "CN(C)CCOc1ccc(Cl)cc1C(C)(C)C" .
Output line: fulfilled

Input line: State whether 60% exceeds double positive events recorded for CC(=O)Oc1ccc(C2OC(=O)c3ccccc3N2C(C)=O)cc1 (stereo unspecified) .
Output line: not fulfilled

Attention now turns to another entry.
Input line: State whether 60% exceeds double positive events recorded for "O=c1ccn([C@@H]2O[C@H](CO)[C@@H](O)[C@H]2O)c(=O)[nH]1" .
Output line: not fulfilled

---

# test: LAP4-GFP expression modulators in yeast, confirmation, cell-based, cherry picks, flow cytometry, mother/daughter gates (AID 2271);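 note: ratio of sample to DMSO plate mean so 100% equals DMSO level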
# condition notes: S. cerevisiae LAP4-GFP strain, 3 h, at 10 µM, 100 means same as DMSO control
Activity calls are given as the source filed them.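 The calls were made as follows: active = GFP response above 150% of the DMSO control; inconclusive = fewer than 70 events counted in any yeast strain; inactive = the rest.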
Give your call using only these classes: 1.0 (active), 0.0 (inactive)

Observe how each entry below is paired with its result.
Input line: What did this assay record as the result for "O=C(CNC(=O)c1ccncc1)N/N=C/c1cccc([N+](=O)[O-])c1" ?
Output line: 0.0

Input line: What did this assay record as the result for "CN(C)c1ccc(/C=C/c2ccc3ccccc3[n+]2C)cc1" ?
Output line: 0.0

Input line: What did this assay record as the result for "Oc1c(Br)cc(Br)cc1C=Nc1ccc2c(c1)OCO2" ?
Output line: 1.0

Input line: What did this assay record as the result for "CCc1nnc(NC(=O)CSc2nnc(C3CCCCC3)n2-c2cccc(Cl)c2)s1" ?
Output line: 0.0

Input line: What did this assay record as the result for CC(Oc1ccc(Br)cc1)C(=O)Nc1nc(-c2ccccn2)cs1 (stereo unspecified) ?
Output line: 1.0

Input line: What did this assay record as the result for "C=CCn1c(=N)c(C#N)cc2c(=O)n3ccccc3nc21" ?
Output line: 0.0

Input line: What did this assay record as the result for "Cc1ccc(-c2ccc(/C=N/NC(N)=S)o2)cc1" ?
Output line: 0.0

Input line: What did this assay record as the result for "Cc1n[nH]c(C)c1N1C(=O)c2cccc3c(Br)ccc(c23)C1=O" ?
Output line: 0.0

Input line: What did this assay record as the result for Cc1ccc(C2CC(c3cccs3)=NN2S(=O)(=O)c2ccc(C)cc2)cc1 (stereo unspecified) ?
Output line: 0.0

Input line: What did this assay record as the result for "CCn1c(=O)c(C(C)=O)c(O)c2ccccc21" ?
Output line: 0.0

Attention now turns to another entry.
Input line: What did this assay record as the result for "O=C1C=C(c2ccccc2)C(=O)N1Nc1ccccc1" ?
Output line: 0.0

---

Give GFP response relative to DMSO for every item shown.
# test: LAP4-GFP expression modulators in yeast, confirmation, cell-based, cherry picks, flow cytometry, mother/daughter gates (AID 2271);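 note: ratio of sample to DMSO plate mean so 100% equals DMSO level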
# condition notes: S. cerevisiae LAP4-GFP strain, 3 h, at 10 µM, stronger effect = higher value, 100 means same as DMSO control
Give bare numbers, in %.

The cases that follow already have their GFP response relative to DMSO on record.
Input line: Query: GFP response relative to DMSO; subject: "COCCN(CCOC)S(=O)(=O)c1ccc(C(=O)Nc2nnc(C)o2)cc1"
Output line: 99.5

Input line: Query: GFP response relative to DMSO; subject: "O=C1c2ccsc2SCCN1Cc1c(Cl)cccc1Cl"
Output line: 98.7

Input line: Query: GFP response relative to DMSO; subject: "CC(=O)Nc1ccc(NC(=O)c2oc3cc(C)c(C)cc3c2C)cc1"
Output line: 99.2

Input line: Query: GFP response relative to DMSO; subject: CC(C)(C)C(=O)C(Cl)C(=O)Nc1ccccc1 (stereo not drawn)
Output line: 300

Input line: Query: GFP response relative to DMSO; subject: "CN(C)c1ccc(/C=C/c2cc[n+](C)cc2)cc1"
Output line: 160

Please give GFP response relative to DMSO, item by item, for the list that follows.
1. Cc1nn2c(N3CCCC3)cc(C(C)C)nc2c1-c1ccccc1
2. CCc1nnc(NC(=O)c2nc(S(=O)(=O)Cc3ccccc3)ncc2Cl)s1
3. Cc1[nH]c2ccccc2c1C(c1ccccn1)N1CCC(C(N)=O)CC1 (stereo not drawn)
4. N=c1n(CCN2CCCCC2)c2ccccc2n1CC(=O)c1ccc(Cl)c(Cl)c1
5. O=C(c1cccc(COCC(F)(F)C(F)F)c1)N1CCN(c2ccccc2)CC1

Output line:
1. 102
2. 98.9
3. 96.7
4. 101
5. 100

Please give GFP response relative to DMSO, item by item, for the list that follows.
1. CCCc1[nH]nc2c1C(c1ccccc1OCC)C(C#N)=C(N)O2 (stereo not drawn)
2. CCc1nnc(NC(=O)c2ccc(S(=O)(=O)N(CCOC)CCOC)cc2)o1
3. O=C(NCc1ccc2c(c1)OCO2)c1nc(S(=O)(=O)Cc2ccccc2)ncc1Cl
4. Cc1nnc(OCc2nc3ccccc3n2C)c2ccccc12
5. CCN(CC)S(=O)(=O)c1ccc(O)c(C(=O)OCC(=O)NC2CCCC2)c1
6. Cc1c(NC(=O)Nc2ccc3c(c2)OCO3)c(=O)n(-c2ccccc2)n1C
7. O=C(N=Nc1c(O)[nH]c2ccccc12)c1ccco1

Output line:
[99.8, 91.5, 109, 98.8, 98.2, 96.5, 99.8]

Please give GFP response relative to DMSO, item by item, for the list that follows.
1. COc1ccc(C2CC(c3ccccc3)=NN2S(=O)(=O)c2ccccc2)cc1 (stereo not drawn)
2. O=C(CCCCCN1C(=O)c2cccc3cccc(c23)C1=O)N1CCOCC1

Output line:
1. 113
2. 102

Please give GFP response relative to DMSO, item by item, for the list that follows.
1. NS(=O)(=O)c1ccc(S(=O)(=O)c2ccccc2)nc1
2. O=C(NOC(=O)c1ccccc1)c1ccccc1

Output line:
1: 97.9; 2: 118

Please give GFP response relative to DMSO, item by item, for the list that follows.
1. O=C1c2ccccc2C(=O)N1OS(=O)(=O)c1ccc(F)cc1
2. Cc1ccccc1NC(=O)c1ccccc1

Output line:
127
95.4

---

# test: LAP4-GFP expression modulators in yeast, confirmation, cell-based, cherry picks, flow cytometry, mother/daughter gates (AID 2271);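 note: ratio of sample to DMSO plate mean so 100% equals DMSO level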
# condition notes: S. cerevisiae LAP4-GFP strain, 3 h, at 10 µM, stronger effect = higher value, 100 means same as DMSO control
Give GFP response relative to DMSO for every item shown.
Answers are plain numbers, in %.

The cases that follow already have their GFP response relative to DMSO on record.
Input line: Query: GFP response relative to DMSO; subject: "CCOC(=O)c1cc(S(=O)(=O)N2CCN(C(=O)OCC)CC2)cn1C"
Output line: 105

Input line: Query: GFP response relative to DMSO; subject: "O=C(Nc1nc(-c2ccc(Cl)s2)cs1)c1cccs1"
Output line: 113

Please give GFP response relative to DMSO, item by item, for the list that follows.
1. COc1ccc(-c2csc(N(CC(C)C)C(=O)c3ccco3)n2)cc1
2. COc1cccc(/C=C2\C(=O)N(c3cccc(C)c3)C(=O)c3ccccc32)c1

Output line:
1. 101
2. 168

Please give GFP response relative to DMSO, item by item, for the list that follows.
1. CCc1nn2c(N3CCOCC3)cc(C)nc2c1-c1ccc(F)cc1
2. Cc1cccc(C)c1NC(=O)c1nc(S(=O)(=O)Cc2ccccc2)ncc1Cl

Output line:
104
102

---

# test: modulators of CIT2-GFP expression in yeast, confirmation, S. cerevisiae, GFP fusion, cherry picks, mother/daughter gates (AID 2274)
# condition notes: S. cerevisiae CIT2-GFP strain, flow cytometry, 3 h; at 10 µM; stronger effect = higher value
measurement kind: GFP response, % of DMSO (%)
Give bare numbers, in %.

The cases that follow already have their GFP response, % of DMSO on record.
Input line: Query: GFP response, % of DMSO; subject: "Cc1ccc(S(=O)(=O)N(Cc2ccccc2)Cc2ccco2)cc1"
Output line: 106

Input line: Query: GFP response, % of DMSO; subject: "O=C(O)c1ccc(N/N=C/c2c(F)cccc2Cl)cc1"
Output line: 96.4

Input line: Query: GFP response, % of DMSO; subject: CCN=C(NCC)SC1CC(=O)N(c2cccc(OCC)c2)C1=O (stereo unspecified)
Output line: 103

Please give GFP response, % of DMSO, item by item, for the list that follows.
1. Cc1cccc(N2C(=O)CC(Sc3nc(C)c4c(n3)CCCC4)C2=O)c1 (stereo unspecified)
2. CCOc1ccccc1N1CCN(C(=O)c2ccccc2)CC1
3. Cc1c(Br)c(O)c(Br)c2sc(=O)oc12

Output line:
1. 99.7
2. 101
3. 97.3

Data provenance: PubChem BioAssay
